# Test system: UACC-257
# experimentSummary: NCI tumour cell line growth inhibition, 48 h
The source made the active and inactive calls. Cut-off read from the data, not from the text of the source: active = GI50 up to about 1.1 µM and inactive = higher.
Labels: active, inactive

compound	cat
NCC(=O)Nc1ccc(Cl)cc1C(=O)c1ccc[nH]1	inactive
CCC(C)N1CN(c2ccccc2)C2(CCN(CCCSc3ccc(F)cc3)CC2)C1=O (stereo not given)	inactive
CC(NC(=O)CNP(=O)(c1ccccc1)c1ccccc1)C(=O)NC(Cc1ccccc1)C(=O)OCc1ccccc1 (stereo not given)	inactive
COc1ccc2c(c1)c(=O)c1c(NCCN(C)C)ccc3nnn2c31	inactive
COc1c(OC)c(OC)c(-c2cc(=O)c3c(OC)c(OC)c(OC)c(OC)c3o2)c(OC)c1OC	inactive
O=[N+]([O-])c1ccc(C[S+]([O-])Cc2ccccc2)cc1 (stereo not given)	inactive
CC1C/C(=C\c2ccc(OC(=O)C(C)(C)C)cc2)C(=O)/C(=C/c2ccc(OC(=O)C(C)(C)C)cc2)C1 (stereo not given)	inactive
CC(O)c1nc(C#N)c(N)o1 (stereo not given)	inactive
O=C(Cc1ccccc1)NCCCN(CCCCN(CCCNC(=O)Cc1ccccc1)C(=O)OCc1ccccc1)C(=O)OCc1ccccc1	inactive
CC(C)N(c1cc2c(cc1F)c(=O)c(C(=O)O)cn2-c1ccc(N2CCN(C)CC2)cn1)C(C)C	inactive
COc1cn2c(cc1=O)COc1ccc(-c3ccccc3)cc1-2	inactive
CCN(CC)CCOC(c1ccccc1)c1ccccc1.CCOC(=O)Nc1ccc(S(=O)(=O)NCCCl)cc1.CCOC(=O)Nc1ccc(S(=O)(=O)NCCCl)cc1.Nc1ccc(C(=O)O)c(O)c1	inactive
Cc1ccc(S(=O)(=O)C(C#N)c2nc3ccccc3nc2-n2cccn2)cc1 (stereo not given)	inactive
COC(=O)C#Cc1cccc(OC)c1OC	inactive
CN(C)c1ccc(/C=C(\NC(=O)c2ccccc2)C(=O)NCC(=O)O)cc1	inactive
O=c1[nH]c2c(S)nc(O)nc2n1-c1ccccc1	inactive
CC(C)(C)n1c(=O)n2n(c1=O)C1c3cccc4cccc(c34)C2C2c3cccc4cccc(c34)C1n1c(=O)n(C(C)(C)C)c(=O)n12	inactive
CC(=O)O[C@H]1C(=O)[C@@]2(C)[C@H]([C@H](OC(=O)c3ccccc3)[C@]3(O)C[C@H](OC(=O)[C@H](O)[C@@H](NC(=O)C(C)(O)C(C)O)c4ccccc4)C(C)=C1C3(C)C)[C@]1(OC(C)=O)CO[C@@H]1C[C@@H]2O (stereo not given in full)	active
CC(=O)NC(CCCNC(=O)OCc1ccccc1)C(=O)NCc1ccccc1 (stereo not given)	inactive
Cc1c2c(cc3c1[nH]c1ccccc13)C=NCC2	inactive
O=c1[nH]c2ccccc2nc1CBr	inactive
O=c1[nH]c2c(C(F)(F)F)c(Cl)c(-c3ccccc3)nc2o1	inactive
NC(=O)C/C=C/CC(N)=O	inactive
N=C(N)Nc1ncccc1[N+](=O)[O-]	inactive
N=C(N)C1=C(O)NC(=O)N(C2CCCCC2)C1	inactive
O=C1CS/C(=N/N=C/c2cn(Cc3ccc(Cl)cc3Cl)c3ccccc23)N1	inactive
O=S(=O)(Nc1nccs1)c1ccc(Nc2nc(-c3cccs3)nc3ccc(I)cc23)cc1	inactive
C#CCn1c(=O)c2cccnc2n(CC#C)c1=O	inactive
O=C(N/C=C/C=C/Sc1ccccc1)OCc1ccccc1	inactive
CNC(=S)N/N=C(\C(=N/NC(=S)NC)c1ccccn1)c1ccccn1	inactive
COc1ccc(C(c2ccc(C(C)C)cc(OC)c2=O)c2ccc(C(C)C)cc(OC)c2=O)cc1	inactive
Cc1oc2c(C)c3oc(=O)cc(C)c3cc2c1CNC(=O)[C@@H]1OCCOCCOCCOCCOCCOC1C(=O)O (stereo not given in full)	inactive
Cc1c(C)c2c(c(N)c1C#N)C(=O)N(O)C2=O	inactive
COc1cc([C@@H]2c3cc4c(cc3[C@@H](NC(=O)c3ccccc3)C3COC(=O)[C@@H]32)OCO4)cc(OC)c1O (stereo not given in full)	inactive
NNC(=O)C(=O)N/N=C1\CCCC1C(=O)CCC(=O)Nc1cccc(Cl)c1 (stereo not given)	inactive
CC(=N/NC(=S)N(C)C)/C(=N\NC(=S)N(C)C)c1ccccc1	inactive
N#CC(c1cc2c(cc1Br)OCO2)N1CCOCC1 (stereo not given)	inactive
COc1cc2nc3n(c(=O)c2cc1OC)CCCCC3	inactive
COc1ccc(/C(=N/N=c2[nH]c3ccccc3[nH]2)C(=O)O)cc1	inactive
CC1(C)[C@@H]2C[C@H]1c1cnc(-c3ccccn3)cc1[C@H]2C(O)[C@@H]1c2cc(-c3ccccn3)ncc2[C@H]2C[C@@H]1C2(C)C (stereo not given in full)	active
